Source of measurements: PubChem BioAssay AID1918948

test system: K-562 leukemia growth, % test/control; assay: Anticancer human tumor K-562 cell line growth inhibition; details: second compound 0.316 µM; first compound 0.00316 µM; spheroids with HUVEC and MSC; active = viability on the fitted dose curve at most 10% of control; inactive = the rest;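 also: spheroids exposed to compounds for 7 days; 100% = DMSO vehicle wells and lower values mean fewer viable cells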
Answer with one of the outcomes active, inactive

Please review the entries below; each comes with its answer.
CC(C)CC(NC(=O)CNC(=O)c1cc(Cl)ccc1Cl)B1OC(=O)CC(CC(=O)O)(C(=O)O)O1 (stereo unspecified) + NC1CCC(NC2CC2c2ccccc2)CC1	inactive
CC(C)CC(NC(=O)CNC(=O)c1cc(Cl)ccc1Cl)B1OC(=O)CC(CC(=O)O)(C(=O)O)O1 (stereo unspecified) + NC1CC1c1ccc(-c2cccc(O)c2)cc1	inactive
CC1COCCN1c1cc(-c2ccnn2C)c2ccnc(-c3ccn[nH]3)c2n1 (stereo unspecified) + NC1CC1c1ccc(-c2cccc(O)c2)cc1	inactive
O=C(C=Cn1cnc(-c2cc(C(F)(F)F)cc(C(F)(F)F)c2)n1)NNc1cnccn1 + NC1CC1c1ccc(-c2cccc(O)c2)cc1	inactive

Give the logged outcome of this assay for the following compound: CC(C)CC(NC(=O)C(Cc1ccccc1)NC(=O)c1cnccn1)B(O)O (stereo unspecified) + NC1CC1c1ccc(-c2cccc(O)c2)cc1
active

Can you look up the reported call for CC[C@@]1(O)C(=O)OCc2c1cc1n(c2=O)Cc2cc3c(CN(C)C)c(O)ccc3nc2-1 + NC1CC1c1ccc(-c2cccc(O)c2)cc1 for me?
inactive

Would you mind telling me which call this test gave Cn1ncnc1C1c2n[nH]c(=O)c3cc(F)cc(c23)NC1c1ccc(F)cc1 (stereo unspecified) + NC1CC1c1ccc(-c2cccc(O)c2)cc1 ?
inactive

Just curious, what result did Nc1ncn(C2CC(O)C(CO)O2)c(=O)n1 (stereo unspecified) + NC1CC1c1ccc(-c2cccc(O)c2)cc1 get here?
inactive

Any idea what this test logged for Nc1ncn(C2CC(O)C(CO)O2)c(=O)n1 (stereo unspecified) + NC1CCC(NC2CC2c2ccccc2)CC1 ?
inactive

====

test system: K-562 leukemia growth, % test/control; assay: Anticancer human tumor K-562 cell line growth inhibition; settings: second compound 10 µM; first compound 0.0949 µM; active compounds read low; spheroids with HUVEC and MSC;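 also: spheroids exposed to compounds for 7 days; 100% = DMSO vehicle wells and lower values mean fewer viable cells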
Binary label based on viability, T/C with cut-off 30%: below gives true (1), not below gives false (0).

CCN(c1cc(-c2ccc(CN3CCOCC3)cc2)cc(C(=O)NCc2c(C)cc(C)[nH]c2=O)c1C)C1CCOCC1 + NC1CCC(NC2CC2c2ccccc2)CC1	false (0)

State whether 30% exceeds viability, T/C recorded for NS(=O)(=O)OCC1CC(n2ccc3c(NC4CCc5ccccc54)ncnc32)CC1O (stereo unspecified) + NC1CCC(NC2CC2c2ccccc2)CC1 .
true (1)

Quick check: does CCc1c2c(nc3ccc(O)cc13)-c1cc3c(c(=O)n1C2)COC(=O)[C@]3(O)CC + NC1CC1c1ccc(-c2cccc(O)c2)cc1 have viability, T/C under 30%?
true (1)

Item Nc1ccccc1NC(=O)c1ccc(CNC(=O)OCc2cccnc2)cc1 + NC1CC1c1ccc(-c2cccc(O)c2)cc1 : viability, T/C beneath 30%, strictly?
false (0)

A record lists Nc1ncn(C2CC(O)C(CO)S2)c(=O)n1 (stereo unspecified) + NC1CCC(NC2CC2c2ccccc2)CC1 . Is its viability, T/C below 30%?
false (0)

For O=C(C=Cc1cccc(S(=O)(=O)Nc2ccccc2)c1)NO + NC1CC1c1ccc(-c2cccc(O)c2)cc1 , is the recorded viability, T/C below the cut-off of 30%?
false (0)

Consider the compound Nc1ccn(C2OC(CO)C(O)C2(F)F)c(=O)n1 (stereo unspecified) + NC1CC1c1ccc(-c2cccc(O)c2)cc1 . Is its viability, T/C strictly less than 30%?
true (1)
